- METHOD_SUMMARY: in vivo
- DETAILS: mouse, po
ASSAY_ENDPOINT: LD50 at 48 h

COMPOUND	LD50 at 48 h
CN(Sc1ccc(C#N)cc1)C(=O)Oc1cccc2c1OC(C)(C)C2 [XV]	25 to 50 mg/kg
CC(C)c1ccccc1SN(C)C(=O)Oc1cccc2c1OC(C)(C)C2 [XII]	50 to 75 mg/kg
Cc1ccccc1SN(C)C(=O)Oc1cccc2c1OC(C)(C)C2 [Example II]	100 to 125 mg/kg

IN: Supply reported LD50 at 48 h belonging to this compound: COc1ccc(SN(C)C(=O)Oc2cccc3c2OC(C)(C)C3)cc1 [IX]
OUT: 25 to 50 mg/kg

IN: Supply reported LD50 at 48 h belonging to this compound: Cc1ccc(SN(C)C(=O)Oc2cccc3c2OC(C)(C)C3)cc1 [IV]
OUT: 100 to 125 mg/kg

IN: Supply reported LD50 at 48 h belonging to this compound: Cc1cc(Br)ccc1SN(C)C(=O)Oc1cccc2c1OC(C)(C)C2 [XI]
OUT: 100 to 150 mg/kg

// provenance: patent US3997549A
